pIC50: −log10 of the molar value.
Let's go through some recorded pIC50 values for JAK1 (Homo sapiens, UniProt P23458) together.

Entry CC(C)C1=CB(O)Oc2ccc(Nc3nn([C@@H]4COCC[C@H]4C#N)cc3C(N)=O)cc21 (single isomer, unassigned) [Example 30b] has what pIC50?
> 8.00

New cases:
Entry CC(C)C1=CB(O)Oc2ccc(Nc3nn(C4COCCC4C#N)cc3C(N)=O)cc21 (stereo not shown) has what pIC50?
> 8.00

Also check N#C[C@@H]1CCOC[C@H]1n1cc(C(N)=O)c(Nc2cc3c(c(C(F)(F)F)c2)OB(O)C=C3)n1 (single isomer, unassigned) [Example 28b]
> 8.00

Also check CC1=Cc2cc(Nc3nn([C@@H]4COCC[C@H]4C#N)cc3C(N)=O)cc(F)c2OB1O (single isomer, unassigned) [Example 14a]
> 8.00

###

target: JAK1 (Homo sapiens, UniProt P23458)
Sequence (P23458 whole entry, species assumed): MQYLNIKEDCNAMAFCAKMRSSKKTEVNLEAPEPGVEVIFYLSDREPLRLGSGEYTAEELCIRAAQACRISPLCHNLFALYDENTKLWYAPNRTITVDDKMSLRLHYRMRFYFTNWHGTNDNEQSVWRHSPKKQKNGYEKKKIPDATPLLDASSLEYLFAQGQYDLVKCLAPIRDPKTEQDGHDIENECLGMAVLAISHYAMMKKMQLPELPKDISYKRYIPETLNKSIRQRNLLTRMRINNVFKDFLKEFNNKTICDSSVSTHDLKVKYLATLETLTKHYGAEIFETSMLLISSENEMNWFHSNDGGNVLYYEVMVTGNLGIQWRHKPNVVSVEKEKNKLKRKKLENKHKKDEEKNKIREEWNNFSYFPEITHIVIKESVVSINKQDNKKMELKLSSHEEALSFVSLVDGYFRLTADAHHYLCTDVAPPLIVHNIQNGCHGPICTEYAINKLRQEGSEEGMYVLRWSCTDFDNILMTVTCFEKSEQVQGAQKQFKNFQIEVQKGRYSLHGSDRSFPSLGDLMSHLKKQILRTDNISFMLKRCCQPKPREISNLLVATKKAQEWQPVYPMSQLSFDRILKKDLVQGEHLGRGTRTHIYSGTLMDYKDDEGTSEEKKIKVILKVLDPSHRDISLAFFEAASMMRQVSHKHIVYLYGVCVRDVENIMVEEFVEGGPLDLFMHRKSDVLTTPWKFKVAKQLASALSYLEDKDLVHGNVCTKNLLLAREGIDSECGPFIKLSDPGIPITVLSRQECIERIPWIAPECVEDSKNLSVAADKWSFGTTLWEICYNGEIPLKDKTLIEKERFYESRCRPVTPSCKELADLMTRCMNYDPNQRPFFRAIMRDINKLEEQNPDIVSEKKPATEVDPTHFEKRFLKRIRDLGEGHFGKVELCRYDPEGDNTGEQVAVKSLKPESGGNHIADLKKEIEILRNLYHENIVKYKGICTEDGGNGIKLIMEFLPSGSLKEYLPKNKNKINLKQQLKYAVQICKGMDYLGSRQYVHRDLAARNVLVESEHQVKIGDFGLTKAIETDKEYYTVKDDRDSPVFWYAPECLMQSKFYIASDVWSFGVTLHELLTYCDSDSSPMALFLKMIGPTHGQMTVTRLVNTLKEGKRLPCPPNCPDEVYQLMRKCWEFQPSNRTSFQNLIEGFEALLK
measured-quantity: IC50

Would you please look over these solved cases?
Entry Cc1cc(Nc2nn(C3COCCC3C#N)cc2C(N)=O)cc2c1B(O)OC2 (single isomer, unassigned) [Example 6b] has what IC50?
10 to 50 nM

Also check N#CC1CCOCC1n1cc(C(N)=O)c(Nc2ccc3c(c2)C(Cl)=CB(O)O3)n1 (stereo not drawn)
< 10 nM

Pending compound:
Entry CCC1=Cc2cc(Nc3nn([C@@H]4COCC[C@H]4C#N)cc3C(N)=O)ccc2OB1O (relative stereo) has what IC50?
< 10 nM

###

Let's go through some recorded IC50 values for JAK1 (Homo sapiens) together.

Would you please look over these solved cases?
Entry Cc1cc(Nc2nn([C@@H]3COCC[C@H]3C#N)cc2C(N)=O)cc2c1OB(O)C=C2 (single isomer, unassigned) [Example 27a] has what IC50?
0.01 to 0.05 µM

Also check Cc1cc(Nc2nn([C@@H]3COCC[C@H]3C#N)cc2C(N)=O)cc2c1OB(O)C=C2 (single isomer, unassigned) [Example 27b]
< 0.01 µM

Also check N#C[C@@H]1CCOC[C@H]1n1cc(C(N)=O)c(Nc2cc(Cl)c3c(c2)COB3O)n1 (single isomer, unassigned) [Example 52b]
< 0.01 µM

New cases:
Entry CC1(C)OB(O)c2cc(Nc3nn([C@@H]4COCC[C@H]4C#N)cc3C(N)=O)ccc21 (single isomer, unassigned) [Example 36a] has what IC50?
< 0.01 µM

Also check CC1=CB(O)Oc2c(C)cc(Nc3nn([C@@H]4COCC[C@H]4C#N)cc3C(N)=O)cc21 (single isomer, unassigned) [Example 47a]
< 0.01 µM

Also check CC1=Cc2cc(Nc3nn([C@@H]4CCC[C@H]4C#N)cc3C(N)=O)cc(F)c2OB1O (relative stereo) [Example 15]
< 0.01 µM

Also check Cc1cc(Nc2nn(C3COCCC3C#N)cc2C(N)=O)cc2c1B(O)OC2 (single isomer, unassigned) [Example 6a]
< 0.01 µM

Also check N#C[C@@H]1CCOC[C@H]1n1cc(C(N)=O)c(Nc2ccc3c(c2)C(Cl)=CB(O)O3)n1 (single isomer, unassigned) [Example 43a]
< 0.01 µM

Also check N#C[C@@H]1CCOC[C@H]1n1cc(C(N)=O)c(Nc2ccc3c(c2)COB3O)n1 (single isomer, unassigned) [Example 41a]
< 0.01 µM

Also check N#C[C@@H]1CCOC[C@H]1n1cc(C(N)=O)c(Nc2ccc3c(c2)CCOB3O)n1 (relative stereo)
< 0.01 µM

Also check N#C[C@@H]1CCOC[C@H]1n1cc(C(N)=O)c(Nc2cc(F)c3c(c2)COB3O)n1 (single isomer, unassigned) [Example 38b]
< 0.01 µM

Also check N#C[C@@H]1CCOC[C@H]1n1cc(C(N)=O)c(Nc2cc(F)c3c(c2)COB3O)n1 (single isomer, unassigned) [Example 38a]
0.01 to 0.05 µM

Also check Cc1c(Nc2nn([C@@H]3COCC[C@H]3C#N)cc2C(N)=O)ccc2c1C=CB(O)O2 (single isomer, unassigned) [Example 17a]
> 0.05 µM

###

molecular target: JAK1 (Homo sapiens, UniProt P23458)
# IC50 annotations

Entry CC1=CB(O)Oc2c(C)cc(Nc3nn([C@@H]4COCC[C@H]4C#N)cc3C(N)=O)cc21 (single isomer, unassigned) [Example 47b] has what IC50?
< 10 nM

New cases:
Entry CC(C)C1=Cc2cc(Nc3nn([C@@H]4CCC[C@H]4C#N)cc3C(N)=O)ccc2OB1O (relative stereo) has what IC50?
< 10 nM

Also check CC(C)(C)C1=Cc2cc(Nc3nn([C@@H]4CCC[C@H]4C#N)cc3C(N)=O)ccc2OB1O (relative stereo)
10 to 50 nM

###

biological target: JAK1 (Homo sapiens, UniProt P23458)
measured-quantity: IC50

Would you please look over these solved cases?
Entry CC1(C)OB(O)c2cc(Nc3nn([C@@H]4COCC[C@H]4C#N)cc3C(N)=O)ccc21 (single isomer, unassigned) [Example 36b] has what IC50?
< 10 nM

Also check CC(C)C1=CB(O)Oc2ccc(Nc3nn([C@@H]4CCC[C@H]4C#N)cc3C(N)=O)cc21 (relative stereo)
10 to 50 nM

Also check N#C[C@@H]1CCOC[C@H]1n1cc(C(N)=O)c(Nc2ccc3c(c2)B(O)OC3)n1 (single isomer, unassigned) [Example 16a]
> 50 nM

Also check N#C[C@@H]1CCOC[C@H]1n1cc(C(N)=O)c(Nc2cc3c(c(C4CC4)c2)OB(O)C=C3)n1 (single isomer, unassigned) [Example 55b]
> 50 nM

Also check N#CC1CCOCC1n1cc(C(N)=O)c(Nc2cc(F)c3c(c2)COB3O)n1 (stereo not shown)
< 10 nM

Also check N#C[C@@H]1CCOC[C@H]1n1cc(C(N)=O)c(Nc2ccc3c(c2)COB3O)n1 (single isomer, unassigned) [Example 41b]
< 10 nM

Pending molecule:
Entry N#C[C@@H]1CCOC[C@H]1n1cc(C(N)=O)c(Nc2cc3c(cc2F)OB(O)C=C3)n1 (relative stereo) has what IC50?
10 to 50 nM

###

target: UniProtKB P23458
pIC50: −log10 of the molar value.
measured-quantity: pIC50

Would you please look over these solved cases?
Entry N#C[C@@H]1CCOC[C@H]1n1cc(C(N)=O)c(Nc2ccc3c(c2)B(O)OCC3)n1 (single isomer, unassigned) [Example 42a] has what pIC50?
> 8.00

Also check CC1=CB(O)Oc2ccc(Nc3nn(C4COCCC4C#N)cc3C(N)=O)cc21 (single isomer, unassigned) [Example 3a]
> 8.00

Also check CC1=CB(O)Oc2ccc(Nc3nn(C4COCCC4C#N)cc3C(N)=O)cc21 (single isomer, unassigned) [Example 3b]
7.30 to 8.00

New cases:
Entry N#C[C@@H]1CCOC[C@H]1n1cc(C(N)=O)c(Nc2ccc3c(c2)C(Cl)=CB(O)O3)n1 (single isomer, unassigned) [Example 43b] has what pIC50?
> 8.00

Also check N#C[C@@H]1CCOC[C@H]1n1cc(C(N)=O)c(Nc2cc(Cl)c3c(c2)COB3O)n1 (single isomer, unassigned) [Example 52a]
> 8.00

Also check Cc1cc2c(cc1Nc1nn([C@@H]3COCC[C@H]3C#N)cc1C(N)=O)C=CB(O)O2 (single isomer, unassigned) [Example 46b]
< 7.30

Also check CC(C)C1=Cc2cc(Nc3nn(C4COCCC4C#N)cc3C(N)=O)ccc2OB1O (stereo not shown) [Example 48]
> 8.00

###

Let's go through some recorded IC50 values for JAK1 (Homo sapiens) together.

Would you please look over these solved cases?
Lab note: need IC50 with JAK1 (Homo sapiens) for entry N#C[C@@H]1CCCC[C@H]1n1cc(C(N)=O)c(Nc2ccc3c(c2)COB3O)n1 (relative stereo) , please look it up.
< 10 nM

Also check CC1=C(C)c2cc(Nc3nn([C@@H]4COCC[C@H]4C#N)cc3C(N)=O)cc(C)c2OB1O (single isomer, unassigned) [Example 23b]
> 50 nM

Also check N#C[C@@H]1CCOC[C@H]1n1cc(C(N)=O)c(Nc2cc3c(c(OC(F)(F)F)c2)OB(O)C=C3)n1 (single isomer, unassigned) [Example 53b]
< 10 nM

Also check N#C[C@@H]1CCOC[C@H]1n1cc(C(N)=O)c(Nc2ccc3c(c2)C=CB(O)O3)n1 (single isomer, unassigned) [Example 51a]
< 10 nM

New cases:
Lab note: need IC50 with JAK1 (Homo sapiens) for entry Cc1cc2c(cc1Nc1nn([C@@H]3COCC[C@H]3C#N)cc1C(N)=O)C=CB(O)O2 (single isomer, unassigned) [Example 46a] , please look it up.
> 50 nM

Also check N#C[C@@H]1CCOC[C@H]1n1cc(C(N)=O)c(Nc2cc3c(c(C(F)(F)F)c2)OB(O)C=C3)n1 (single isomer, unassigned) [Example 28a]
> 50 nM

Also check N#CC1CCOCC1n1cc(C(N)=O)c(Nc2cc(F)c3c(c2)C=CB(O)O3)n1 (stereo not drawn)
< 10 nM

Also check CC1=Cc2cc(Nc3nn(C4COCCC4C#N)cc3C(N)=O)cc(F)c2OB1O (stereo not drawn)
< 10 nM

Also check N#C[C@@H]1CCOC[C@H]1n1cc(C(N)=O)c(Nc2cc(F)c3c(c2)C=CB(O)O3)n1 (single isomer, unassigned) [Example 44a]
< 10 nM
